# Assay system: human LPA1 (Homo sapiens)
# Construct: expressed in transfected cells; host or cells: CHO-K1
# Sequence (Q92633 whole entry): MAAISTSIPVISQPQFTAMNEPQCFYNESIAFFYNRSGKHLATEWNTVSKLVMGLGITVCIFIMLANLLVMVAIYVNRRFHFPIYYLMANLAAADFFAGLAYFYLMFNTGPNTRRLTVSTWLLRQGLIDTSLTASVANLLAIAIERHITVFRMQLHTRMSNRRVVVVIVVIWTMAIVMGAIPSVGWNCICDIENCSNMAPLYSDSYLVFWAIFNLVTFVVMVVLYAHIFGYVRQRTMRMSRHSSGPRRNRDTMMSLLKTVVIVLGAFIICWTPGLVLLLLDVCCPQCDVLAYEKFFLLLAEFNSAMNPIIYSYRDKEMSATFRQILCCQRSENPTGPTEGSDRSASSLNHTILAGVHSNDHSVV
# Experiment summary: In vitro LPA1 calcium flux antagonist assay - Bioduro protocol
# Assay type: cell-based
# Study conditions: Table B3; CHO-K1 cells overexpressing human LPA1 and G15a, LPA challenge at EC80; read-out: Activity (IC50 class)
Listing: IC50 of selected compounds

Field: example entries. Status: answers known.
>  <Compound>
CCOc1cncc(-c2ccc(NC3(C(=O)O)CCOCC3)cc2COC2CC3CC3C2)c1C (stereo not drawn)

>  <IC50>
< 100 nM

$$$$
>  <Compound>
COc1cc(-c2ccc(OCCC(=O)O)cc2COC2Cc3ccccc3C2)cc(OC)c1C

>  <IC50>
100 to 1000 nM

$$$$
>  <Compound>
COc1cc(-c2ccc(NC3(C(=O)O)CC(F)(F)C3)cc2COC2CC2)c(F)c(OC)c1C

>  <IC50>
< 100 nM

$$$$
>  <Compound>
COc1cc(-c2ccc(NC3(C(=O)O)CCOCC3)cc2COC2Cc3ccccc3C2)cc(OC)c1C(C)O (stereo not drawn)

>  <IC50>
< 100 nM

$$$$
>  <Compound>
O=C(O)C1(Nc2ccc(-c3cccc(OC4CC4)c3C(F)F)c(COC3CC3)c2)CCC(F)(F)CC1

>  <IC50>
< 100 nM

$$$$

Measured on human LPA1 (Homo sapiens), `COc1cc(OC)c(Cl)c(-c2ccc(NC3(C(=O)O)CCOCC3)cc2COC2CCCC2)c1` has a documented IC50 of < 100 nM

Measured on human LPA1 (Homo sapiens), `COc1cccc(-c2ccc(NC3(C(=O)O)CCOCC3)cc2COC2CCCC2)c1C` has a documented IC50 of < 100 nM

Measured on human LPA1 (Homo sapiens), COc1cc(-c2ccc(NC3(C(=O)O)CCOCC3)cc2COC2COc3ccccc32)c(F)c(OC)c1C (single isomer, unassigned) [Compound 224] has a documented IC50 of 100 to 1000 nM

Measured on human LPA1 (Homo sapiens), COc1cc(-c2ccc(NC3(C(=O)O)CCOCC3)cc2CO[C@@H]2CCC[C@H]2OC)c(C)c(OC)c1C (racemic) has a documented IC50 of 100 to 1000 nM

Measured on human LPA1 (Homo sapiens), `COc1cc(-c2ccc(NC3(C(=O)O)CCNCC3)cc2COC2Cc3ccccc3C2)cc(OC)c1C` has a documented IC50 of > 1000 nM

Measured on human LPA1 (Homo sapiens), `CCCCOCc1cc(NC2(C(=O)O)CCOCC2)ccc1-c1cc(OC)c(C)c(OCC)c1F` has a documented IC50 of < 100 nM

Measured on human LPA1 (Homo sapiens), `COc1cc(-c2ccc(OC3(C(=O)O)CCOCC3)cc2COC2CCCC2)c(Cl)c(OC)c1C` has a documented IC50 of < 100 nM

Measured on human LPA1 (Homo sapiens), `COc1cc(-c2ccc(NC3(C(=O)O)CCOCC3)cc2COC2Cc3ccccc3C2)cc(OC)c1C(C)=O` has a documented IC50 of < 100 nM

Measured on human LPA1 (Homo sapiens), CCOC1CC(Nc2ccc(-c3cc(OC)c(C)c(OC)c3)c(COC3Cc4ccccc4C3)c2)(C(=O)O)C1 (stereo not drawn) has a documented IC50 of < 100 nM

Measured on human LPA1 (Homo sapiens), `COc1cc(-c2c(Cl)cc(NC3(C(=O)O)CCOCC3)cc2COC2CCCC2)cc(OC)c1C` has a documented IC50 of < 100 nM
